- System: Plasmodium falciparum
- Assay Protocol: GSK_TCMDC: Inhibition of Plasmodium falciparum 3D7 in whole erythrocytes, using parasite LDH activity as an index of growth.
- Assay type: functional, organism-based
- Applied Conditions: Plasmodium falciparum, 3D7
Quantity Kind: log10 XC50 (log10 of the value in nM)
The figures below represent log10 of XC50, where XC50 is stated in nM.

Ask: Which measured log10 XC50 value corresponds to `CN(C)CCCNc1ncnc2c1[nH]c1ccc(F)cc12` ?
Reply: 2.86

Ask: How about `Oc1ccc2[nH]c(-c3ccc(F)cc3F)nc2c1CN1CCC(O)(c2ccccc2)CC1` ?
Reply: 2.92

Ask: How about `Cn1nc(C(=O)N2CCC(c3[nH]ncc3Cc3ccccc3)CC2)c2ccccc2c1=O` ?
Reply: 2.48

Ask: How about `Nc1ncnc2cc(-c3cccc(S(N)(=O)=O)c3)sc12` ?
Reply: 2.18

Ask: How about `CCOc1ccc(OCCCON2C(=N)N=C(N)NC2(C)C)cc1` ?
Reply: 0.51

Ask: How about `CC1CCN(c2nc(C(=O)Nc3cccc4c3CCCC4)c(C(C)C)s2)CC1` ?
Reply: 3.02

Ask: How about `Fc1cccc(Nc2nc(NCCc3ccc(Cl)cc3)nc(Nc3cccc(F)c3)n2)c1` ?
Reply: 3.03

Ask: How about `CCc1cn2c3c(cc(C(=O)N[C@@H](Cc4cccc(F)c4)[C@H](O)CNC4CC4)cc13)N(C)S(=O)(=O)CC2` ?
Reply: 2.16

Ask: How about O=C(NCc1ccc(Cl)c(Cl)c1)c1ccc(C2CCCN(Cc3ccc4[nH]cnc4c3)C2)cc1 (stereo not given) ?
Reply: 2.89

Ask: How about `O=C(/C=C/c1ccc(Cl)c(Cl)c1)N1CCC(CCN2CCC(c3c[nH]c4cc5c(cc34)OCO5)CC2)CC1` ?
Reply: 2.86

----------
Would you kindly list XC50 for each of these compounds?
- Test system: Plasmodium falciparum
- Assay Protocol: GSK_TCMDC: Inhibition of Plasmodium falciparum 3D7 in whole erythrocytes, using parasite LDH activity as an index of growth.
- Format: functional, organism-based
- Applied Conditions: Plasmodium falciparum, 3D7
I only need the number, in nM, no unit after it.

Ask: Which measured XC50 value corresponds to `N=C(N)c1cccc(OCCCOc2cccc(NC(=O)Nc3ccc([N+](=O)[O-])cc3)c2)c1` ?
Reply: 862

Ask: How about `CCCOc1cc(NC(=O)Nc2ccnc3ccccc23)cc(OCCC)c1` ?
Reply: 732

Ask: How about `CCN(CC)CCCCNc1cc(-c2[nH]c(-c3c(Cl)cccc3Cl)nc2-c2ccc3cc(OC)ccc3c2)ccn1` ?
Reply: 958

Ask: How about `COc1cc2ncnc(Nc3ccc4nc(Cc5ccccc5)[nH]c4c3)c2cc1OC` ?
Reply: 1480

Ask: How about `CC(=O)N/N=C/[C@H](CCc1ccccc1)NC(=O)[C@H](CC(C)C)NC(=O)c1ccc(OCCN2CCOCC2)cc1` ?
Reply: 222

Ask: How about `Cc1ccc2nc(Cl)c3cc(C(=O)NCCCN4CCCC4)sc3c2c1` ?
Reply: 1140

Ask: How about Cc1ccc(Oc2c(-c3ccccc3CN3CCCC3CN(C)C)cnn(C)c2=O)cn1 (stereo not given) ?
Reply: 1160

Ask: How about CC(Cc1ccc(SCCSc2ccccc2)cc1)NCC(O)c1cccc(Cl)c1 (stereo not given) ?
Reply: 367

Ask: How about `COc1cccc(-c2cccc(NC(=O)C3CCN(Cc4ccc(O)cc4)CC3)c2)c1` ?
Reply: 1030

Ask: How about CNCCNC(=O)C1Cc2c([nH]c3c(C)cccc23)C(c2ccc(Cl)c(Cl)c2)N1 (stereo not given) ?
Reply: 716

----------
- Test system: Plasmodium falciparum
- Assay Protocol: GSK_TCMDC: Inhibition of Plasmodium falciparum 3D7 in whole erythrocytes, using parasite LDH activity as an index of growth.
- Type: functional, organism-based
- Applied Conditions: Plasmodium falciparum, 3D7
Quantity Kind: XC50 (nM)
I only need the number, in nM, no unit after it.

Ask: Which measured XC50 value corresponds to `CCCCCCc1cc(O)c2c3c(c(=O)oc2c1)CCN(C)C3` ?
Reply: 671

Ask: How about `COc1cc(C(=O)NCCCN2CCN(c3cccc(Cl)c3)CC2)ccc1-c1cc2cc(Cl)c(Cl)cc2[nH]1` ?
Reply: 468

Ask: How about `Clc1ccc(CNC2CCN(CC3CCCCC3)CC2)cc1` ?
Reply: 1110

Ask: How about `CC(C)c1cccc(OCC2CCN(c3ncc(C(=O)Nc4ccccc4)cc3Cl)CC2)c1` ?
Reply: 1060

Ask: How about `C[C@H](CNc1ccnc(Nc2ccc3[nH]c(=O)[nH]c3c2)n1)c1ccccc1` ?
Reply: 1310

Ask: How about O=C(N[C@@H](Cc1ccccc1)[C@H](O)CNC1CCCc2ccccc21)c1cc(C2CCCC2)cc(N2CCCC2=O)c1 (stereo not given in full) ?
Reply: 162

Ask: How about `Cc1cc(C(=O)NCc2ccc(-c3c(C)noc3C)cc2)n(-c2ccccc2)n1` ?
Reply: 825

Ask: How about `CN(C)Cc1ccc(-c2cc3ncnc(Nc4ccc(OCc5cccc(F)c5)c(Cl)c4)c3s2)[nH]1` ?
Reply: 174

Ask: How about c1csc(-c2nc(NCC3CCCO3)ncc2-c2ccsc2)n1 (stereo not given) ?
Reply: 487

Ask: How about `CN1CCN(CCCN(Cc2cccc(-c3cccc(CNC4CCCC4)c3)c2)C(=O)CCC2CCCC2)CC1` ?
Reply: 675

----------
- Tested on: Plasmodium falciparum
- Assay Protocol: GSK_TCMDC: Inhibition of Plasmodium falciparum 3D7 in whole erythrocytes, using parasite LDH activity as an index of growth.
- Format: functional, organism-based
- Applied Conditions: Plasmodium falciparum, 3D7
The threshold is 800 nM. Values of XC50 beneath it are tagged T; values meeting or exceeding it are tagged F.

Ask: Hello, is XC50 of the following compound strictly smaller than 800 nM? `Cc1nn(C)c(C)c1CN(Cc1nc(-c2cccc(Oc3ccccc3)c2)oc1C)C1CC1`
Reply: T

Ask: How about `CN(C)Cc1c(O)ccc2[nH]c(-c3ccc(F)cc3F)nc12` ?
Reply: F

Ask: How about `CN(C)C(C)(C)CN(Cc1ccc(-c2ccc(C(F)(F)F)cc2)cc1)C(=O)Cn1c(CCc2cccc(F)c2F)nc(=O)c2ccccc21` ?
Reply: F

Ask: How about `CCOC(=O)c1ccc(Nc2cc(Nc3ccc(C(=O)OCC)cc3)nc(C)n2)cc1` ?
Reply: F

Ask: How about `CCCCCCCNCCNc1cc(C)nc2ccccc12` ?
Reply: T

Ask: How about COc1cc(OC)c(NC(=O)C2c3ccccc3C(=O)N(CC(C)C)C2c2cccs2)cc1Cl (stereo not given) ?
Reply: T

Ask: How about `CC1(C)N=C(N)N=C(N)N1OCCCOc1cccc(C(=O)O)c1` ?
Reply: T

----------
- System: Plasmodium falciparum
- Assay Protocol: GSK_TCMDC: Inhibition of Plasmodium falciparum 3D7 in whole erythrocytes, using parasite LDH activity as an index of growth.
- Format: functional, organism-based
- Applied Conditions: Plasmodium falciparum, 3D7
Quantity Kind: XC50 (nM)
I only need the number, in nM, no unit after it.

Ask: Request body: readout XC50, system Plasmodium falciparum, query `COc1cc2c(cc1OCCN1CCC(N3CCCCC3)CC1)N(C(=O)/C=C/c1ccccc1Cl)CC2` . Return the value.
Reply: 280

Ask: How about Cc1nn(-c2cccc(Cl)c2)c2c1C(C(=O)c1ccc3c(c1)OCO3)CC(=O)N2 (centres undefined) ?
Reply: 371

Ask: How about `COc1ccccc1-c1[nH]c2ccccc2c1CN1CCC(c2c(C)cccc2C)CC1` ?
Reply: 918

Ask: How about CCCC(CNCc1ccccc1)CNc1cc(=O)c2ccccc2[nH]1 (centres undefined) ?
Reply: 1020

Ask: How about `O=C(NC1CCCCC1)N(Cc1cccc(-c2ccc(CNCc3ccc4c(c3)OCO4)cc2)c1)C1CCN(Cc2ccccc2)CC1` ?
Reply: 788

Ask: How about `N#Cc1ccc(-c2ccc(C(=O)NCCCCN3CCC(c4cn(CCCO)c5ccccc45)CC3)cc2)cc1` ?
Reply: 750

Ask: How about `Cc1cc([N+](=O)[O-])ccc1NC(=O)Nc1cccc(C(F)(F)F)c1` ?
Reply: 721

Ask: How about Cc1cc(NS(=O)(=O)c2cccc(C(C)N3CCC(N4CCCC4)CC3)c2)ccc1C(C)C (centres undefined) ?
Reply: 824

Ask: How about O=C(CC(c1ccccc1)c1ccccc1O)N1CCOCC1 (centres undefined) ?
Reply: 1520

----------
- Test system: Plasmodium falciparum
- Assay Protocol: GSK_TCMDC: Inhibition of Plasmodium falciparum 3D7 in whole erythrocytes, using parasite LDH activity as an index of growth.
- Type: functional, organism-based
- Applied Conditions: Plasmodium falciparum, 3D7
The threshold is 700 nM. Values of XC50 beneath it are tagged met; values meeting or exceeding it are tagged not met.

Ask: Hello, is XC50 of the following molecule strictly smaller than 700 nM? COc1ccc(F)cc1-c1cccc(CNC2CCN(CC3Cn4c(=O)ccc5ccc(F)c3c54)CC2)c1 (centres undefined)
Reply: not met

Ask: How about `COc1ccc(Cn2c(Nc3cccc(C(F)(F)F)c3)nc3cc(C(=O)NCCN4CCCC4)cnc32)cc1Cl` ?
Reply: not met

Ask: How about CC(Cc1ccc(OCc2ccccc2)c(Cl)c1)NCC(O)c1cccc(C(F)(F)F)c1 (centres undefined) ?
Reply: not met

Ask: How about O=C(C1CCCCC1)N1CCOC(CCN2CCC(c3ccccc3)CC2)(c2ccc(Cl)c(Cl)c2)C1 (centres undefined) ?
Reply: not met

Ask: How about `Cc1ccc(O)cc1Nc1ccnc2cc(-c3ccc(CN4CCCCC4)o3)ccc12` ?
Reply: met

Ask: How about CCOc1ccc(C(=O)N2CCOC(CCN3CCC(c4ccccc4)CC3)(c3ccc(Cl)c(Cl)c3)C2)cc1 (centres undefined) ?
Reply: not met

Ask: How about `O=C(N[C@H]1CCN(Cc2ccc(OCCCN3CCCCC3)cc2)C1)c1cc(Cl)cc(Cl)c1` ?
Reply: met

Ask: How about `CCn1c(-c2nonc2N)nc2c(-c3ccccc3)ncc(OCCCNCCCN3CCOCC3)c21` ?
Reply: met

Ask: How about `O=C(/C=C/c1ccc(Cl)c(Cl)c1)NCCCCCCN1CCCN(C(=O)Nc2ccc(C(F)(F)F)cc2)CC1` ?
Reply: met

Data origin: ChEMBL document CHEMBL1157539
